B1: ACSBG2 (parent)
chain: TPMTIPEFFRESVNRFGTYPALAS

Variants of: B1
Test: protein stability index of a GFP-peptide fusion (GPS, HEK-293T) (PSI 1-6); higher = more stable;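 note: lentivirally expressed fusions sorted by FACS into six bins by GFP to DsRed ratio, PSI derived from sequencing read proportions per bin multiplied by bin number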
Details: c terminus: a fixed tail appended
Can you tell me protein stability index for the items I'm about to list?
Give bare numbers.

| mutant | protein stability index |
| --- | --- |
| I5F | 2.23 |

Take each entry in turn and give its protein stability index.
1. A23N
2. I5A

### Response
1. 2.5
2. 2.44
